src = patent US8344008B2

# subject-of-test: recombinant human LTA4 hydrolase (rhLTA4H) (Homo sapiens)
# Sequence (P09960 whole entry): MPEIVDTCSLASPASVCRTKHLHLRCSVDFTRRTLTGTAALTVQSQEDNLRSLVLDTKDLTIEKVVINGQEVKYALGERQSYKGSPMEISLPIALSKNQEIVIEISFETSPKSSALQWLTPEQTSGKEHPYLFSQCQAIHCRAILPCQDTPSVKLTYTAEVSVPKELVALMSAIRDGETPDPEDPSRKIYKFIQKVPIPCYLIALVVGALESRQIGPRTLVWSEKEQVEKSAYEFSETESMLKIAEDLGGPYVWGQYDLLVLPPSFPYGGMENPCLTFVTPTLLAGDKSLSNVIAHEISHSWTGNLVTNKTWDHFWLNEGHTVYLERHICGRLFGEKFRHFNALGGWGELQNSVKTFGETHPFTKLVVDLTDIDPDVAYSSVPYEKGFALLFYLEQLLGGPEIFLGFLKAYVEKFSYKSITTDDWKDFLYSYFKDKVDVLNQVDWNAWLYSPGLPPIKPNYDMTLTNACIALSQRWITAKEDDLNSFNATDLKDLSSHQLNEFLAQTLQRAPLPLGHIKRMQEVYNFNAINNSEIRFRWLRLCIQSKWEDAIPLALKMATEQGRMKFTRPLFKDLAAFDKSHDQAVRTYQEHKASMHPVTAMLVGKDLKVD
# experiment-notes: Recombinant Human LTA4 Hydrolase Assay for LTA4 Hydrolase Inhibitor Activity
# reported-conditions: average of results obtained; LTB4 quantified by enzyme-linked immunoassay
pKi: −log10 of the molar value.
Would you mind labelling by pKi? At or over 7 is fulfilled, under is not fulfilled.

Please review the entries below; each comes with its answer.
CC(=O)N[C@H]1C[C@H]2CC[C@@H](C1)N2Cc1ccc(Oc2nc3ccc(C)cc3s2)cc1 [Example 73]; fulfilled
COCC(=O)N1C[C@@H]2C[C@H]1CN2CCOc1ccc(Oc2nc3ccccc3s2)cc1 [Example 22]; fulfilled
CC(=O)N[C@H]1C[C@H]2CC[C@@H](C1)N2CCc1ccc(Oc2nc3cccc(Cl)c3s2)cc1 [Example 187]; not fulfilled
CS(=O)(=O)N1C[C@H]2C[C@@H]1CN2CCc1ccc(Oc2nc3c(F)cccc3s2)cc1 [Example 241]; not fulfilled

Lab note: next molecule to report on.
Exam item: Check if pKi >= 7 (inclusive). Item: CC(=O)N1CC2CCC(C1)N2CCOc1ccc(Oc2nc3c(Cl)cccc3s2)cc1 [Example 247]
Marked response: not fulfilled

###

# subject-of-test: recombinant human LTA4 hydrolase (rhLTA4H) (Homo sapiens)
# experiment-notes: Recombinant Human LTA4 Hydrolase Assay for LTA4 Hydrolase Inhibitor Activity
# reported-conditions: average of results obtained; LTB4 quantified by enzyme-linked immunoassay
# Protocol: Biological Methods: Recombinant Human LTA4 Hydrolase Assay for LTA4 Hydrolase Inhibitor Activity Compounds of the present invention were tested for LTA4 hydrolase inhibitor activity against recombinant human LTA4 hydrolase (rhLTA4H). Vectors were prepared and used to express rhLTA4H essentially as follows: LTA4 hydrolase encoding DNA was amplified by polymerase chain reaction (PCR) using a human placental cDNA library as a template. […]
Counter-ions that a name gives are not always drawn.
Entries whose Ki is below 50 nM take satisfied; entries at or above 50 nM take not satisfied.

Please review the entries below; each comes with its answer.
O=C(CO)N1C[C@@H]2C[C@H]1CN2Cc1ccc(Oc2nc3ccccc3s2)cc1 [Example 10]; satisfied
CS(=O)(=O)N[C@@H]1C[C@H]2CC[C@@H](C1)N2CCOc1ccc(Oc2nc3cccc(F)c3s2)cc1 [Example 251]; satisfied

Exam item: Please let me know if CS(=O)(=O)N1C[C@@H]2C[C@H]1CN2CCc1ccc(Oc2nc3ccccc3s2)cc1 [Example 47] shows Ki below 50 nM.
Marked response: not satisfied

Exam item: Please let me know if NCC(=O)N1C[C@H]2C[C@@H]1CN2Cc1ccc(Oc2nc3ccccc3s2)cc1 [Example 29] shows Ki below 50 nM.
Marked response: not satisfied

Exam item: Please let me know if CC(=O)N1CC2CN(CCOc3ccc(Oc4nc5ccccc5s4)cc3)CC2C1 (centres unmarked) [Example 94] shows Ki below 50 nM.
Marked response: satisfied

Exam item: Please let me know if O=C([C@H]1CCCO1)N1CC2CN(Cc3ccc(Oc4nc5ccccc5s4)cc3)CC2C1 (some centres unmarked) [Example 100] shows Ki below 50 nM.
Marked response: not satisfied

Exam item: Please let me know if CC(=O)N1CC2CN(Cc3ccc(Oc4nc5ccccc5s4)cc3)CC2C1 (centres unmarked) [Example 88] shows Ki below 50 nM.
Marked response: satisfied

Exam item: Please let me know if CS(=O)(=O)N1CC2CCC(C1)N2CCOc1ccc(Oc2nc3cccc(F)c3s2)cc1 [Example 211] shows Ki below 50 nM.
Marked response: not satisfied

Exam item: Please let me know if c1ccc2sc(Oc3ccc(CN4C[C@@H]5C[C@H]4CN5)cc3)nc2c1 [Example 1B, hydrochloride] shows Ki below 50 nM.
Marked response: not satisfied

Exam item: Please let me know if CC(C)(C)OC(=O)N1CC(C(=O)N2C[C@@H]3C[C@H]2CN3Cc2ccc(Oc3nc4ccccc4s3)cc2)C1 [Example 64] shows Ki below 50 nM.
Marked response: not satisfied

Exam item: Please let me know if CC(=O)N1C[C@@H]2C[C@H]1CN2CCc1cccc(Oc2nc3ccccc3s2)c1 [Example 8] shows Ki below 50 nM.
Marked response: not satisfied

Exam item: Please let me know if CS(=O)(=O)N1CC2CCC(C1)N2Cc1ccc(Oc2nc3cccc(Cl)c3s2)cc1 [Example 174] shows Ki below 50 nM.
Marked response: not satisfied

Exam item: Please let me know if NC(=O)N1C[C@@H]2C[C@H]1CN2Cc1ccc(Cc2nc3ccccc3s2)cc1 [Example 35] shows Ki below 50 nM.
Marked response: not satisfied

Exam item: Please let me know if CS(=O)(=O)N1CC2CCC(C1)N2CCc1ccc(Oc2nc3cc(F)ccc3s2)cc1 [Example 210] shows Ki below 50 nM.
Marked response: not satisfied

Exam item: Please let me know if CC(=O)N[C@H]1C[C@H]2CC[C@@H](C1)N2Cc1ccc(Cc2nc3ccccc3s2)cc1 [Example 5] shows Ki below 50 nM.
Marked response: satisfied

Exam item: Please let me know if CC(C)(O)C(=O)N1C[C@@H]2C[C@H]1CN2CCc1ccc(Oc2nc3ccccc3s2)cc1 [Example 17] shows Ki below 50 nM.
Marked response: satisfied

Exam item: Please let me know if O=C(NCc1ccco1)N1CC2CN(Cc3ccc(Oc4nc5ccccc5s4)cc3)CC2C1 (centres unmarked) [Example 131] shows Ki below 50 nM.
Marked response: satisfied
